- PROTOCOL_CONDITIONS: [M+Na]+; instrument: DT; stepped-field
This listing pairs molecules with measured collision cross section (N2).
Numeric only. Scale: Å²

Check out these entries, answers already filled in.
{"columns": ["MOLECULE", "NUMERIC_READOUT"],
 "data": [
  ["OC[C@@H](O)[C@@H](O)[C@H](O)[C@@H](O)CO [Sorbitol]", 139.4],
  ["CC=CCC=CCC=CCC=CCC=CCC=CCC=CCC=CCC(=O)OC[C@H](COP(=O)(O)OC[C@H](N)C(=O)O)OC(=O)CC=CCC=CCC=CCC=CCC=CCC=CCC=CCC=CC [PS(52:16)]", 322.2]
]}

(Q) Param item = CC/C=C\C/C=C\C/C=C\C/C=C\C/C=C\C/C=C\CCC(=O)O[C@H](COC(=O)CCC/C=C\C/C=C\C/C=C\C/C=C\CCCCC)COP(=O)(O)OC[C@H](N)C(=O)O [PS(42:10)] ; retrieve measured collision cross section (N2).
(A) 297.1

(Q) Returns the measured collision cross section (N2) for the input molecule. Input: CC/C=C\C/C=C\C/C=C\C/C=C\C/C=C\CCCC(=O)O[C@H](COC(=O)CCCC/C=C\C/C=C\C/C=C\C/C=C\CC)COP(=O)([O-])OCC[N+](C)(C)C [PC(38:9)]
(A) 297.8

(Q) Need collision cross section (N2) of CC/C=C\C/C=C\C/C=C\C/C=C\C/C=C\CCCC(=O)O[C@H](COCCCCCCCCCCCCCCCC)COP(=O)(O)OCCN [PE(o36:5)] , thanks.
(A) 279.2

(Q) Form field: reported collision cross section (N2) of CCCCCCCCCCCCC=CC[C@@H](O)[C@H](CO[C@@H]1O[C@H](CO)[C@@H](O)C(O)C1O)NC(=O)CCCCCCCCCCCCCCC (some centres not stated) [GlcCer(34:1)]
(A) 277.3

(Q) // collision cross section (N2) lookup, key: CC/C=C\C/C=C\C/C=C\C/C=C\C/C=C\C/C=C\CCC(=O)O[C@H](COC(=O)CCCCCCCCC/C=C\C/C=C\CCCCC)COP(=O)(O)OCCN [PE(42:8)]
(A) 297.3

###

- PROTOCOL_CONDITIONS: [M+H]+; instrument: DT; single field, calibrated with Agilent tune mix (Agilent)
Let's look at some molecules and their measured collision cross section (N2).
Note: unit Å² is implicit; provide only the numeric part.

// worked examples, collision cross section (N2) included
{"columns": ["MOLECULE", "UNIT_ABBREV", "collision cross section (N2)"],
 "data": [
  ["O=C1O[C@H]([C@@H](O)CO)C(O)=C1O", "Å²", 138.6],
  ["N[C@@H](CCC(=O)N[C@@H](CS)C(=O)NCC(=O)O)C(=O)O", "Å²", 167.4],
  ["N[C@@H](Cc1ccc(OP(=O)(O)O)cc1)C(=O)O", "Å²", 162.2],
  ["NCCCCC(=O)O", "Å²", 121.3],
  ["CC1CNC(=O)NC1=O (centres undefined) [Dihydrothymine]", "Å²", 131.2],
  ["Cc1ncc(COP(=O)(O)O)c(CN)c1O [Pyridoxamine 5'-phosphate]", "Å²", 150.9],
  ["Cc1cc2nc3c(=O)[nH]c(=O)nc-3n(C[C@H](O)[C@H](O)[C@H](O)CO)c2cc1C", "Å²", 188.3],
  ["CCCCCCCCCC(=O)SCCNC(=O)CCNC(=O)[C@H](O)C(C)(C)COP(=O)(O)OP(=O)(O)OC[C@H]1O[C@@H](n2cnc3c(N)ncnc32)[C@H](O)[C@@H]1OP(=O)(O)O", "Å²", 277]
]}

Below: the item to evaluate.
(Q) Which collision cross section (N2) is listed for `O=C(O)c1cc(=O)c2ccccc2[nH]1` ?
(A) 137
